Taken from ChEMBL document CHEMBL4402603.

Molecular target: Speckle-type POZ protein (Homo sapiens) (UniProt O43791)
Sequence (O43791 whole entry, the tested form may be a part): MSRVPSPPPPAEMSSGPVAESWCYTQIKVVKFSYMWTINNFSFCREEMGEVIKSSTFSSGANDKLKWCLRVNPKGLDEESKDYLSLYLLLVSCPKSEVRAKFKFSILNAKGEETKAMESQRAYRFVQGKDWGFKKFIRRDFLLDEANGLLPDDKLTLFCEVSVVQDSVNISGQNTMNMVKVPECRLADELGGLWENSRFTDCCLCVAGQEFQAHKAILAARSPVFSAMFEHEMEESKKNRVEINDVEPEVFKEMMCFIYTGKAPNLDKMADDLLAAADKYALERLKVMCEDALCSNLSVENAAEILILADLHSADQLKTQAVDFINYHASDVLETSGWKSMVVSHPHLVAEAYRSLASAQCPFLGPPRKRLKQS
Experiment: Binding affinity to recombinant N-terminal GST/His-tagged SPOP (unknown origin) MATH binding domain expressed in Escherichia coli BL21 (DE3) assessed as change in melting temperature at 5 fold compound by SYPRO Orange dye based differential scanning fluorimetry (reference value: -1.7 degreeC)
QUANTITY: ΔTm (°C)
One number for each entry, in °C.

Recorded results for 4 molecules are shown here.
>>> assay_result("Cc1cccn2c(=O)c3cc(C(=O)NCCCN4CCOCC4)c(=N)n(CCc4cccc(F)c4)c3nc12")
4
>>> assay_result("Cc1cccn2c(=O)c3cc(C(=O)NCCCN4CCOCC4)c(=N)n(CCc4ccccc4)c3nc12")
3
>>> assay_result("Cc1cccn2c(=O)c3cc(C(=O)NCCCN4CCOCC4)c(=N)n(CCc4ccc(Br)cc4)c3nc12")
1.3
>>> assay_result("Cc1cccn2c(=O)c3cc(C(=O)NCCCN4CCOCC4)c(=N)n(CCc4ccc(F)cc4)c3nc12")
2

Could you now consider this next molecule?
Speckle-type POZ protein (Homo sapiens) (UniProt O43791) data for Cc1cccn2c(=O)c3cc(C(=O)NCc4cccnc4)c(=N)n(CCCN4CCOCC4)c3nc12 ; its ΔTm: 0.3
